System: A498 renal
Assay: NCI-60 one-dose screen, 48 h (100 = growth as untreated, 0 = no growth, -100 = all killed)
Settings: 10 µM unless noted
The panel holds about 83,000 compounds, 20% with a hit somewhere; the sample as a whole holds those more often.
Hi, to clarify the labels: Condition met covers growth from 30% upward, Condition not met covers anything below 30%.

Use these answered entries as a reference point.
- molecule: "NC(N)=Nc1ccc(Oc2cccc(Nc3ccc(Br)c(C(F)(F)F)c3)c2)cn1"
  class-assignment: "Condition not met"
- molecule: "COc1cccc(N2CCN(c3ncnc4c3[nH]c3ccc(F)cc34)C[C@H]2C)c1"
  class-assignment: "Condition met"
- molecule: "O=C1CCC(N2C(=O)c3ccc(NS(=O)(=O)c4ccccc4OC(F)(F)F)cc3C2=O)C(=O)N1 (centres undefined)"
  class-assignment: "Condition not met"
- molecule: "Nc1ncc(-c2ccc3ncnc(N4CCc5cc(F)c(F)cc54)c3c2)cn1"
  class-assignment: "Condition not met"
- molecule: "Cc1nc(-c2ccccc2O)ccc1C(=O)N=Nc1c(O)[nH]c2ccc(Br)cc12"
  class-assignment: "Condition met"
- molecule: "O=C(Cn1cc[n+](CC(=O)c2ccc(-c3ccccc3)cc2)c1)Nc1cccc2cccnc12"
  class-assignment: "Condition met"
- molecule: "C=C(C=O)[C@@H]1CC[C@]2(C)[C@H](CC=C3[C@H]4[C@@H](C)[C@H](C)CC[C@]4(C(=O)OC)CC[C@]32C)[C@@]1(C)CCC#N"
  class-assignment: "Condition met"
- molecule: "O=C(NNc1nc2cc(F)ccc2n2c(CO)ccc12)c1cnccn1"
  class-assignment: "Condition not met"

Turning now to a further record.
Is the recorded value of growth equal to or greater than 30% for this molecule? `O=C(c1ccc(O)cc1)[C@@H]1CN[C@@]2(C(=O)Nc3ccccc32)[C@H]1c1ccc(F)cc1`
Condition met
